# System: DU-145 prostate
# method_notes: NCI-60 one-dose screen, 48 h (100 = growth as untreated, 0 = no growth, -100 = all killed)
# experimental_context: 10 µM unless noted
This is part of a sample that, as a whole, favours compounds with a hit. Of some 83,000 tested, about 20% had one in any assay.
property_measured: growth (%)
Respond numerically; units are % and should not be typed.

Consider the reported growth for these molecules:
## Input # input molecule: O=C1C(Cl)=C(NCCCCCCNC2=C(Cl)C(=O)c3ccccc3C2=O)C(=O)c2ccccc21 ; wanted: its growth
## Output 104

## Input Try this molecule next: CC(C)(C)[Si](C)(C)OC1[C@@H](CNC(=O)NC(=O)NC(N)=O)O[C@@H](n2cnc3c(NC(=O)Nc4ccccc4)ncnc32)[C@H]1O[Si](C)(C)C(C)(C)C (stereo partly drawn)
## Output 58.9

Now for a further molecule.
## Input # input molecule: COc1ccc(Cc2cnc(NC(=O)c3cc(C)oc3C)s2)cc1 ; wanted: its growth
## Output 40.7

----------
# System: IGROV1 ovarian
# method_notes: NCI-60 one-dose screen, 48 h
# experimental_context: 10 µM unless noted
The panel holds about 83,000 compounds, 20% with a hit somewhere; the sample as a whole holds those more often. Calls of active or inactive are those of the source. The calls were made as follows: active = growth percent below 10; inactive = the rest.
A correct response names exactly one class from t = active, f = inactive

Examples from the recorded data:
## Input Check the results log: what was the call for Cn1c(=O)cc2c3c(c(NCCCO)ccc31)C(=O)c1ccccc1-2 ?
## Output f

## Input Try this molecule next: O=C(c1ccncc1)N1N=C(c2ccc(Cl)cc2)C[C@H]1c1cn(-c2ccccc2)nc1-c1ccccc1
## Output f

## Input Try this molecule next: C=C1C(=O)O[C@H]2[C@H]1CC/C(COC(=O)NCc1ccc(Cn3c(=O)sn(CCCCC)c3=O)cc1)=C\CC[C@@]1(C)O[C@@H]21
## Output f

## Input Try this molecule next: CCOC(=O)[C@@H]1CSC(CC)=C(C(=O)O)N1
## Output f

## Input Try this molecule next: O=C(O)CCCN1C(=O)/C(=C/c2cn(-c3ccccc3)nc2-c2ccc([N+](=O)[O-])cc2)SC1=S
## Output f

## Input Try this molecule next: Cn1ccc(=O)c(C(=O)Nc2nsc3ccc([N+](=O)[O-])cc23)c1
## Output f

Now take the following molecule into account.
## Input Check the results log: what was the call for CCCCCCCC[C@@H]1N[C@@H](C(=O)OC)Cc2c1[nH]c1ccccc21 ?
## Output f

----------
# System: DU-145 prostate
# method_notes: NCI-60 one-dose screen, 48 h (100 = growth as untreated, 0 = no growth, -100 = all killed)
# experimental_context: 10 µM unless noted
Compounds without any hit were thinned out: in the full panel of roughly 83,000, 20% have a hit.
Readings of growth for the listed molecules
Respond numerically; units are % and should not be typed.

Consider the reported growth for these molecules:
## Input # input molecule: O=C1Nc2ccccc2/C1=C/c1nc2ccccc2c(=O)[nH]1 ; wanted: its growth
## Output 99.3

## Input Try this molecule next: O=C(CN1CCOCC1)Nc1nc(-c2cc3ccccc3oc2=O)cs1
## Output 106

## Input Try this molecule next: COc1ccc(/C=N/C2=C(C#N)C(c3ccccc3)c3ccc4ccccc4c3O2)cc1 (stereo unspecified)
## Output 25.6

## Input Try this molecule next: CCCCCCCCCCCCCCCCOCCCOP(=O)(O)C1CCCN(O)C1=O (stereo unspecified)
## Output 24.6

## Input Try this molecule next: COc1ccc(OC)c(/C=N/Nc2ncnc3c2c(C)nn3C)c1
## Output 108

Now for a further molecule.
## Input # input molecule: COc1ccc(-c2nc3c(ncc4ccc(=O)[nH]c43)s2)cc1 ; wanted: its growth
## Output 67.7

----------
# Test system: COLO 205 colon
# method_notes: NCI-60 one-dose screen, 48 h (100 = growth as untreated, 0 = no growth, -100 = all killed)
# experimental_context: 10 µM unless noted
The panel holds about 83,000 compounds, 20% with a hit somewhere; the sample as a whole holds those more often. The source made the active and inactive calls. Rule for the calls: active = growth percent below 10; inactive = the rest.
property_measured: growth

## Input Reported growth for COLO 205 colon, given Cc1ccccc1/C=C/C(=O)c1cccc(OCCCOc2cccc(C(=O)/C=C/c3ccccc3C)c2)c1 ?
## Output 110% [3 µM] (inactive)

----------
# Test system: HCC-2998 colon
# method_notes: NCI-60 one-dose screen, 48 h (100 = growth as untreated, 0 = no growth, -100 = all killed)
# experimental_context: 10 µM unless noted
Compounds without any hit were thinned out: in the full panel of roughly 83,000, 20% have a hit. The source made the active and inactive calls. How the source made its calls: active means growth percent below 10; inactive means the rest.
Readings of growth for the listed compounds

## Input Reported growth for HCC-2998 colon, given C=C1C(=O)O[C@H]2[C@H]1CC/C(COC(=O)/C=C\C(=O)NCc1ccc(Cn3c(=O)sn(CCI)c3=O)cc1)=C\CC[C@@]1(C)O[C@@H]21 ?
## Output 83.9% (inactive)

## Input Try this compound next: CCn1cc(C(=O)O)c(=O)c2cc(F)c(N3CCN(CC(=O)Nc4ccc(S(=O)(=O)Nc5nccc(C)n5)cc4)C(C)C3)c(F)c21 (centres undefined)
## Output 115% (inactive)

## Input Try this compound next: COc1ccc(NC(=O)c2sc3nc(C)c(C(=O)/C=C/c4ccccc4)cc3c2N)cc1
## Output 25.2% (inactive)

Now for a further compound.
## Input Reported growth for HCC-2998 colon, given CN1CCN(c2cc(Nc3cc(C4CC4)[nH]n3)nc(Nc3ccc(CC(=O)NCc4cccc(F)c4)cc3)n2)CC1 ?
## Output 35.1% (inactive)

----------
# Tested on: OVCAR-4 ovarian
# method_notes: NCI-60 one-dose screen, 48 h
# experimental_context: 10 µM unless noted
Compounds without any hit were thinned out: in the full panel of roughly 83,000, 20% have a hit. Active and inactive are the calls of the source. The calls were made as follows: active = growth percent below 10; inactive = the rest.
A correct response names exactly one class from active, inactive

## Input Check the results log: what was the call for CCOC(=O)c1nn(-c2ccc(S(N)(=O)=O)cc2)c2nc(C)cc(=O)n12 ?
## Output inactive

## Input Try this compound next: C/C(Cc1ccc(Cl)cc1)=C(\c1ccc(O)cc1)c1ccc(Cl)cc1
## Output inactive

## Input Try this compound next: COc1ccc(/C=N/NC(=O)c2ccc(-n3cc(-c4ccccc4)nn3)cc2)cc1OC
## Output inactive

## Input Try this compound next: COc1ccc(C2CC(c3ccc(Nc4nc(Nc5ccccc5)nc(Nc5ccccc5)n4)cc3)=NN2C(C)=O)cc1 (configuration not stated)
## Output inactive

## Input Try this compound next: COc1cc(-c2nc3sccn3c2-c2ccnc(NCCNS(=O)(=O)c3ccccc3)n2)ccc1F
## Output inactive

***
## Input Check the results log: what was the call for CN(C)CCNC(=O)c1ccc(-c2nc3ccc4[nH]ncc4c3c3c2C2CCC3C2)cc1 (configuration not stated) ?
## Output inactive

## Input Try this compound next: Cn1cc(-c2nonc2-c2cn(C)c3ccccc23)c2ccccc21
## Output inactive

## Input Try this compound next: N=C(N)c1ccc(-c2ccc(-c3ccc(Cl)c(Cl)c3)s2)nc1
## Output inactive

## Input Try this compound next: COC1=CC(c2ccc[nH]2)=N/C1=C\c1[nH]c(C)c(CC(=O)NCc2ccccc2)c1C
## Output inactive

## Input Try this compound next: COc1ccc(OC)c(-c2nc(SCC(=O)c3ccc(C#N)cc3)[nH]c(=O)c2C#N)c1
## Output inactive

## Input Try this compound next: CCCCCCCCCCCCCCCCCCOc1ccccc1CC(=O)OCC[N+](C)(C)C
## Output inactive

## Input Try this compound next: Cc1ccccc1/C=C/C(=O)c1cccc(OCCCOc2cccc(C(=O)/C=C/c3ccccc3C)c2)c1
## Output inactive

## Input Try this compound next: CCC(=C(c1ccc(OCCN2CCCCC2)cc1)c1ccc(OCCN2CCCCC2)cc1)c1ccc(Cl)cc1
## Output active

## Input Try this compound next: COc1ccc(Nc2nnc(-c3ccc(OC)c(OC)c3)o2)cc1
## Output inactive

----------
# Test system: RPMI-8226 leukemia
# method_notes: NCI-60 one-dose screen, 48 h (100 = growth as untreated, 0 = no growth, -100 = all killed)
# experimental_context: 10 µM unless noted
About 83,000 compounds went through this panel and 20% of them were active in at least one assay; those are over-represented in the sample as a whole.
Criterion: growth meeting or surpassing 80%. Met: 1. Not met: -1.

## Input Reported growth at or above 80%? COCCOc1cc2ncnc(N3CCN(c4ncc(S(=O)(=O)N5CCCCC5)cn4)CC3)c2cc1OCCOC
## Output 1

## Input Try this molecule next: COc1ccc(-c2nn(-c3cccc(Cl)c3)cc2-c2cc(-c3ccc(Br)cc3)nc(N)n2)cc1
## Output 1

***
## Input Reported growth at or above 80%? CSc1nc(N)c(NS(=O)(=O)c2ccc(C(C)=O)cc2)c(=O)[nH]1
## Output 1

## Input Try this molecule next: COC(=O)CC[C@@H]1O[C@@H](c2cccc(C(F)(F)F)c2)[C@@H](O)[C@H]1O
## Output 1
